assay: chemical genetic growth profiling, strain panel (AID 1159580);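 also: tested at 20 µM; growth read once vehicle control cultures reached saturation at 30 °C; lower values mean less growth of the strain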; conditions: S. cerevisiae deletion strains, growth OD, locus YNL322C, strain KRE1 (second series), stronger effect = lower value
Screen size: about 5,500 compounds; about 2,000 (36%) were called active. Inconclusive results (about 18%) are left out. The list shows a part of the results.
Param label: returns TRUE when normalized growth < 1, returns FALSE otherwise, including exact equality.

Compound: COc1cc([C@@H]2c3cc4c(cc3[C@H](OC(C)=O)[C@H]3COC(=O)[C@H]23)OCO4)cc(OC)c1OC
Assigned class: FALSE

Compound: CC(C(=O)O)[C@H]1CCC2C3CC=C4C[C@@H](O)CC[C@]4(C)C3CC[C@@]21C (some centres not stated)
Assigned class: FALSE

Compound: CC(=O)OCC(=O)[C@@]1(O)CCC2C3CC[C@@H]4C[C@H](O)CC[C@]4(C)C3C(=O)C[C@@]21C (some centres not stated)
Assigned class: FALSE

Compound: CC(C)Oc1ccc2c(=O)cc(-c3ccccc3)oc2c1
Assigned class: TRUE

Compound: COc1ccc(-c2cc(=O)c3ccccc3o2)cc1OC
Assigned class: TRUE

Compound: CC(=O)Oc1ccc(-c2cc(=O)c3c(OC(C)=O)cc(OC(C)=O)cc3o2)cc1
Assigned class: TRUE

Compound: CC(=O)O.CC(=O)O.[Cd]
Assigned class: TRUE

Compound: NCC(=O)CCC(=O)O
Assigned class: TRUE
